# Tested on: B16-F10 murine melanoma
# assayExplanation: In vitro cytotoxicity assay, B16-F10 murine melanoma
# Type: cell-based
# experimentalSetup: Mus musculus, B16-F10, B16-F10 murine melanoma; two values per compound; four-fold serial dilution; read-out: In vitro cytotoxicity IC50, B-16-F10
Listed here are compounds together with their documented IC50.
The figure you give is taken to be in µg/mL; do not add the unit.

Ask | What value of measured IC50 is listed for COc1cc([C@@H]2c3cc4c(cc3[C@@H](O[C@@H]3O[C@@H]5CO[C@@H](C)O[C@H]5[C@H](O)[C@H]3O)[C@H]3COC(=O)[C@H]23)OCO4)cc(NCN2C(=O)CCC2=O)c1O ?
Reply | 5.5

----------
# Test system: B16-F10 murine melanoma
# assayExplanation: In vitro cytotoxicity assay, B16-F10 murine melanoma
# Format: cell-based
# experimentalSetup: B16-F10 murine melanoma; two values per compound; four-fold serial dilution
Rule: In vitro cytotoxicity IC50, B-16-F10 below 20 µg/mL gives condition met. Equal to or above 20 µg/mL gives condition not met.

Ask | Please let me know if CNc1cc([C@@H]2c3cc4c(cc3[C@@H](O[C@@H]3O[C@@H]5CO[C@@H](C)O[C@H]5[C@H](O)[C@H]3O)[C@H]3COC(=O)[C@H]23)OCO4)cc(OC)c1O [Example 4, 3'-Desmethoxy-3'-methylamine etoposide] shows In vitro cytotoxicity IC50, B-16-F10 below 20 µg/mL.
Reply | condition met

----------
Listed here are compounds together with their documented log10 IC50.
# Test system: B16-F10 murine melanoma
# assayExplanation: In vitro cytotoxicity assay, B16-F10 murine melanoma
# Format: cell-based
# experimentalSetup: Mus musculus, B16-F10, B16-F10 murine melanoma; two values per compound; four-fold serial dilution; read-out: In vitro cytotoxicity IC50, B-16-F10
A value of 2 here means IC50 of 100 in µg/mL, since values are log10.

Worked set:
COc1cc([C@@H]2c3cc4c(cc3[C@@H](O[C@@H]3O[C@@H]5CO[C@@H](C)O[C@H]5[C@H](O)[C@H]3O)[C@H]3COC(=O)[C@H]23)OCO4)cc(NC(=O)NCc2ccccc2)c1O [Example 11]: 1.64
COc1cc([C@@H]2c3cc4c(cc3[C@@H](O[C@@H]3O[C@@H]5CO[C@@H](C)O[C@H]5[C@H](O)[C@H]3O)[C@H]3COC(=O)[C@H]23)OCO4)cc2ncoc12 [Example 27, Etoposide benzoxazole derivative]: 0.72
COc1cc([C@@H]2c3cc4c(cc3[C@@H](O[C@@H]3O[C@@H]5CO[C@@H](C)O[C@H]5[C@H](O)[C@H]3O)[C@H]3COC(=O)[C@H]23)OCO4)cc(N=Cc2cc(OC)c(OC)c(OC)c2)c1O [Example 21]: 0.72

# input for lookup
Ask | What value of measured log10 IC50 is listed for COc1cc([C@@H]2c3cc4c(cc3[C@@H](O[C@@H]3O[C@@H]5CO[C@@H](C)O[C@H]5[C@H](O)[C@H]3O)[C@H]3COC(=O)[C@H]23)OCO4)cc(NS(C)(=O)=O)c1O [Example 12] ?
Reply | 1.79

----------
# System: B16-F10 murine melanoma
# assayExplanation: In vitro cytotoxicity assay, B16-F10 murine melanoma
# Assay type: cell-based
# experimentalSetup: B16-F10 murine melanoma; two values per compound; four-fold serial dilution
# Experimental: The in vitro cytotoxicity assay involved growing various mammalian tumor cells, including human tumor cells, on microtitre plates employing established tissue culture methods. The concentration of each compound required to inhibit cell growth by 50% (IC50) was then determined by a four-fold serial dilution technique. The validity of the method has been supported by a report published in the "Proceedings of the American Association for Cancer Research", 1984, 25:1891 (Abst. No. 328). […]
Listed here are molecules together with their documented In vitro cytotoxicity IC50, B-16-F10.
The figure you give is taken to be in µg/mL; do not add the unit.

Worked set:
COc1cc([C@@H]2c3cc4c(cc3[C@@H](O[C@@H]3O[C@@H]5CO[C@@H](C)O[C@H]5[C@H](O)[C@H]3O)[C@H]3COC(=O)[C@H]23)OCO4)cc(N=Cc2ccco2)c1O: 15.3
COc1cc([C@@H]2c3cc4c(cc3[C@@H](O[C@@H]3O[C@@H]5CO[C@@H](C)O[C@H]5[C@H](O)[C@H]3O)[C@H]3COC(=O)[C@H]23)OCO4)cc(N=Cc2ccsc2)c1O: 8.4
COc1cc([C@@H]2c3cc4c(cc3[C@@H](O[C@@H]3O[C@@H]5CO[C@@H](C)O[C@H]5[C@H](O)[C@H]3O)[C@H]3COC(=O)[C@H]23)OCO4)cc(NC(=O)NCCCl)c1O: 87
COc1cc([C@@H]2c3cc4c(cc3[C@@H](O[C@@H]3O[C@@H]5CO[C@@H](C)O[C@H]5[C@H](O)[C@H]3O)[C@H]3COC(=O)[C@H]23)OCO4)cc(N=Cc2ccncc2)c1O: 16.4

# input for lookup
Ask | What value of measured In vitro cytotoxicity IC50, B-16-F10 is listed for COc1cc([C@@H]2c3cc4c(cc3[C@@H](O[C@@H]3O[C@@H]5CO[C@@H](C)O[C@H]5[C@H](O)[C@H]3O)[C@H]3COC(=O)[C@H]23)OCO4)cc(NS(C)(=O)=O)c1O ?
Reply | 54
